Provenance of the data: ChEMBL document CHEMBL1201862

Test system: KM12
Experiment: NCI tumour cell line growth inhibition, 48 h
Activity calls are given as the source filed them. Cut-off read from the data, not from the text of the source: active = GI50 up to about 1.1 µM and inactive = higher.
parameter.measured: GI50

[
  {
    "compound": "CC(C)(C)OC(=O)N/N=C(/N)c1ccccc1",
    "result": "> 100 µM (inactive)"
  },
  {
    "compound": "CC(=O)O[C@H]1CC[C@@]2(C)C(=CC[C@@H]3[C@@H]2CC[C@]2(C)c4c(cc(C#N)c(=N)n4C(C)=O)C[C@@H]32)C1",
    "result": "17.9 µM (inactive)"
  },
  {
    "compound": "CCOc1cc(NC(C)=O)ccc1C(=O)NN1C(=O)C(Oc2ccccc2)C1c1ccccc1 (stereo not given)",
    "result": "> 100 µM (inactive)"
  },
  {
    "compound": "O=[N+]([O-])/C(C(Cl)=C(Cl)Cl)=C(\\Nc1cccc2ccccc12)n1nnc2ccccc21",
    "result": "30.7 µM (inactive)"
  }
]

For the compound CC(O)C1OC(n2ccc(=O)[nH]c2=O)CC1n1cncn1 (stereo not given) , give its measured GI50 value.
> 100 µM (inactive)
